All values here come from ChEMBL document CHEMBL1201862.

System: IGROV-1
Experiment: NCI tumour cell line growth inhibition, 48 h
Active and inactive are the calls of the source. No stated cut-off is given here; in the data, active = GI50 up to about 1.1 µM and inactive = higher.
Exercise: for every item that follows, state its recorded GI50.

### Prompt Can you share its GI50? I mean this molecule: `CN1C[C@H]2[C@@H](C1=O)[C@H](c1ccc([N+](=O)[O-])cc1)ON2C`
### Response > 100 µM (inactive)

### Prompt Can you share its GI50? I mean this molecule: COc1ccc(C2S/C(=C\c3cccc(O)c3)C(=O)N2NC(=O)Cc2ccccc2)cc1 (configuration not stated)
### Response > 100 µM (inactive)

### Prompt Can you share its GI50? I mean this molecule: `N/N=C1/C(=N/O)CCc2nonc21`
### Response > 100 µM (inactive)

### Prompt Can you share its GI50? I mean this molecule: `CCN(CC)c1ccc2cc(-c3nc(O)c4ccccc4n3)c(=N)oc2c1`
### Response > 100 µM (inactive)

### Prompt Can you share its GI50? I mean this molecule: `C/C(=C\COP(=O)(O)OP(=O)(O)O)CC/C=C(\C)CNc1ccccc1`
### Response 11 µM (inactive)

### Prompt Can you share its GI50? I mean this molecule: COC1=CC(=O)N(C(=O)C2CSC(C(CO)NC(=O)c3csc(/C=N/O)n3)=N2)C1 (configuration not stated)
### Response > 100 µM (inactive)

### Prompt Can you share its GI50? I mean this molecule: CC(=O)CCCCC(=O)Nc1ccc(CC(NC(=O)OC(C)(C)C)C(=O)NCC(=O)OCc2ccccc2)cc1 (configuration not stated)
### Response 33.3 µM (inactive)

### Prompt Can you share its GI50? I mean this molecule: `O=C(O)c1ccc(SSc2ccc(C(=O)O)cn2)nc1`
### Response > 100 µM (inactive)

### Prompt Can you share its GI50? I mean this molecule: O=C1OC(c2ccccc2)N(C(=O)c2ccccc2)C1Cc1ccc(OCc2ccccc2)cc1 (configuration not stated)
### Response > 100 µM (inactive)

### Prompt Can you share its GI50? I mean this molecule: OC(c1cccnc1Cl)c1nc2ccccc2c2ccnc(Cl)c12 (configuration not stated)
### Response 5.02 µM (inactive)

### Prompt Can you share its GI50? I mean this molecule: Nc1ncnc2c1ncc(=O)n2C1CC(O)C(CO)O1 (configuration not stated)
### Response > 100 µM (inactive)

### Prompt Can you share its GI50? I mean this molecule: O=C(NC1=NC2C=CC([N+](=O)[O-])=CC2S1)C(=O)Nn1c(S)nc2ccccc2c1=O (configuration not stated)
### Response 21 µM (inactive)

### Prompt Can you share its GI50? I mean this molecule: `CC(C)(N)C(=O)N[C@@H]1C(=O)N2[C@@H]1SC(C)(C)[C@@H]2C(=O)O`
### Response > 100 µM (inactive)

### Prompt Can you share its GI50? I mean this molecule: `O=C1/C(=C/c2ccc(Cl)cc2)N=C(c2ccccc2)N1c1nc2c(Cl)cc(Cl)cc2s1`
### Response 32.4 µM (inactive)

### Prompt Can you share its GI50? I mean this molecule: `O=Cc1c(Cn2ccnc2)c2cc([N+](=O)[O-])ccc2n1Cc1ccccc1`
### Response > 83 µM (inactive)

### Prompt Can you share its GI50? I mean this molecule: `O=C(CCNC12CC3CC(CC(C3)C1)C2)c1ccccc1`
### Response 21.6 µM (inactive)

### Prompt Can you share its GI50? I mean this molecule: `N#Cc1nnc2c3c(-c4ccc(Cl)cc4)c(C#N)c(O)nc3nn2c1N`
### Response 2.61 µM (inactive)

### Prompt Can you share its GI50? I mean this molecule: OC1CCSc2ccccc21 (configuration not stated)
### Response > 100 µM (inactive)

### Prompt Can you share its GI50? I mean this molecule: `CC(C)Cn1cnc2c(Cl)nc3ccccc3c21`
### Response 31.9 µM (inactive)

### Prompt Can you share its GI50? I mean this molecule: `COc1ccc(/C(C)=N/NC(=O)c2ccncc2)cc1OC`
### Response > 10 µM (inactive)

### Prompt Can you share its GI50? I mean this molecule: `O=[N+]([O-])c1ccccc1/C=N/C12CC3CC(CC(C3)C1)C2`
### Response > 100 µM (inactive)

### Prompt Can you share its GI50? I mean this molecule: CC1(C)OC2CC3COC(=O)C3CC2O1 (configuration not stated)
### Response > 100 µM (inactive)

* * *

Test system: KM12
Experiment: NCI tumour cell line growth inhibition, 48 h
Activity calls are given as the source filed them. Rule as the data show it: active = GI50 up to about 1.1 µM and inactive = higher.
attribute_measured: GI50

### Prompt Can you share its GI50? I mean this compound: `COC(=O)/C=C1/OC(c2ccccc2)=C(C)C1=O`
### Response 14.1 µM (inactive)

### Prompt Can you share its GI50? I mean this compound: `COC(=O)[C@H](CCSC)NC(=O)c1ccc(CNC(=O)/C(C)=C/c2ccccc2)cc1`
### Response 82.4 µM (inactive)

### Prompt Can you share its GI50? I mean this compound: CN(C)CC1CCC/C(=C\c2ccc(Cl)cc2)C1=O (stereo unspecified)
### Response 1.69 µM (inactive)

### Prompt Can you share its GI50? I mean this compound: `CC(C)(C)c1ccc(NS(=O)(=O)c2ccc(N)cc2)cc1`
### Response 36.6 µM (inactive)

### Prompt Can you share its GI50? I mean this compound: `N=C(c1ccccc1)N1CCCCC1`
### Response > 100 µM (inactive)

### Prompt Can you share its GI50? I mean this compound: `Cc1oc2ccccc2c(=O)c1Cn1nnc2ccccc21`
### Response > 100 µM (inactive)

### Prompt Can you share its GI50? I mean this compound: `Cc1c(Cl)nc(Nc2nc3ccccc3[nH]2)nc1Cl`
### Response 17.1 µM (inactive)

### Prompt Can you share its GI50? I mean this compound: CC(=O)OC1C[C@@H](C)C2(CC(c3ccoc3)OC2=O)C2CCC(O)C3(CO3)C12CO (stereo partly specified)
### Response > 100 µM (inactive)

### Prompt Can you share its GI50? I mean this compound: `O=C(O)c1ccc(SSc2ccc(C(=O)O)cn2)nc1`
### Response > 100 µM (inactive)

### Prompt Can you share its GI50? I mean this compound: `Cn1c2ccccc2n2c(=O)c(-c3ccc(Cl)cc3)nnc12`
### Response > 100 µM (inactive)

### Prompt Can you share its GI50? I mean this compound: `COC(=O)[C@H](Cc1ccccc1)NC(=O)c1ccc(CNC(=O)/C=C/c2csc(-c3ccccc3)n2)cc1`
### Response 7.87 µM (inactive)

* * *

System: T47D
Experiment: NCI tumour cell line growth inhibition, 48 h
The source made the active and inactive calls. No stated cut-off is given here; in the data, active = GI50 up to about 1.1 µM and inactive = higher. Where a SMILES comes first, the peptide text is derived from it. Bridges are numbered along the chain shown (N, C = ends). [ ]: non-standard residue; d: D form. The star is where a group is joined. ξ: configuration not given here. ξNMePhe(4-NMe2) = CNC(Cc1ccc(N(C)C)cc1)C(=O)O; Picolinoyl(3-OH) = O=C(c1ncccc1O)*; ξPip(4-oxo) = O=C1CCNC(C(=O)O)C1; Phg = N[CH](C(=O)O)c1ccccc1; Abu = CC[CH](N)C(=O)O
Parameter call: string, one of 1 (yes) for active, 0 (no) for inactive

### Prompt Outcome logged for CC1=C/C(O)CC(=O)Cc2nc(co2)C(=O)N2CCC=C2C(=O)OC(C(C)C)C(C)/C=C/C(=O)NC\C=C\1.CCC1NC(=O)C(NC(=O)c2ncccc2O)C(C)OC(=O)C(c2ccccc2)NC(=O)C2CC(=O)CCN2C(=O)C(Cc2ccc(N(C)C)cc2)N(C)C(=O)C2CCCN2C1=O (stereo not drawn) ({Picolinoyl(3-OH)}-T[Abu]P[ξNMePhe(4-NMe2)][ξPip(4-oxo)][Phg]; ester 1-C; configuration not given here) in this assay:
### Response 0 (no)

### Prompt Outcome logged for NNC(N)Nc1ccccc1 (stereo not drawn) in this assay:
### Response 0 (no)

### Prompt Outcome logged for COc1cccc(C2c3cc4c(cc3OC(C)(N3CCCC3)C2C)OCO4)c1OC (stereo not drawn) in this assay:
### Response 0 (no)

### Prompt Outcome logged for Cc1cn(C2CCN(CC3COC(C)(C)O3)O2)c(=O)[nH]c1=O (stereo not drawn) in this assay:
### Response 0 (no)

### Prompt Outcome logged for `O=C(CCl)N1CCN(c2ccccn2)CC1` in this assay:
### Response 0 (no)

### Prompt Outcome logged for CCOC1NC(=O)c2ccccc21 (stereo not drawn) in this assay:
### Response 0 (no)

### Prompt Outcome logged for `COc1ccc(C(=O)/C=C/c2ccc(O)c(O)c2F)c(OC)c1` in this assay:
### Response 1 (yes)

### Prompt Outcome logged for `CC(C)Cn1cnc2c(Cl)nc3ccccc3c21` in this assay:
### Response 0 (no)

* * *

System: TK-10
Experiment: NCI tumour cell line growth inhibition, 48 h
Calls of active or inactive are those of the source. Cut-off read from the data, not from the text of the source: active = GI50 up to about 1.1 µM and inactive = higher.
Parameter call: string, one of active, inactive

### Prompt Outcome logged for CC1OC(OC2C(O[C@H]3CC[C@@]4(C)C(=CC[C@H]5[C@@H]6C[C@@H]7O[C@]8(CC[C@@H](C)CO8)[C@@H](C)[C@@H]7[C@@]6(C)CC[C@@H]54)C3)OC(CO)C(OC3OC(CO)C(O)C3O)C2O)C(O)C(O)C1O (stereo not given in full) in this assay:
### Response active

### Prompt Outcome logged for `O=[N+]([O-])/C(Cl)=C(\Nc1ccccc1)C(Cl)=C(Cl)Cl` in this assay:
### Response inactive

### Prompt Outcome logged for `CCCCCC/C=C\CCCCCCCCCC1=C(CN2CCN(C)CC2)C(=O)C=C(OC)C1=O` in this assay:
### Response inactive

### Prompt Outcome logged for `Cc1ccc(NC(=O)CCc2nc(N)nc(N)c2-c2ccccc2)cc1C` in this assay:
### Response inactive

### Prompt Outcome logged for `Nc1ccc2c(=S)c3ccccc3[nH]c2c1` in this assay:
### Response inactive

### Prompt Outcome logged for `CC(C)(Cc1ccccc1)Cc1cc(O)ccc1O` in this assay:
### Response inactive

### Prompt Outcome logged for O=C1N(c2ccccc2)N=C2c3ccncc3C3=NN(c4ccccc4)C(=O)C123 (stereo not given) in this assay:
### Response inactive

### Prompt Outcome logged for `Cc1cc(S(N)(=O)=O)c(SCc2nc(N)nc(N(C)C)n2)cc1Cl` in this assay:
### Response inactive

### Prompt Outcome logged for O/N=C1/CCCCC1NO (stereo not given) in this assay:
### Response inactive

### Prompt Outcome logged for `Cc1nnc([C@@]2(C)CC[C@H]3[C@@H](CC=C4C[C@@H](O)CC[C@@]43C)[C@@H]2CC#N)o1` in this assay:
### Response inactive
